B1: library; numbered along this chain (parent)
chain: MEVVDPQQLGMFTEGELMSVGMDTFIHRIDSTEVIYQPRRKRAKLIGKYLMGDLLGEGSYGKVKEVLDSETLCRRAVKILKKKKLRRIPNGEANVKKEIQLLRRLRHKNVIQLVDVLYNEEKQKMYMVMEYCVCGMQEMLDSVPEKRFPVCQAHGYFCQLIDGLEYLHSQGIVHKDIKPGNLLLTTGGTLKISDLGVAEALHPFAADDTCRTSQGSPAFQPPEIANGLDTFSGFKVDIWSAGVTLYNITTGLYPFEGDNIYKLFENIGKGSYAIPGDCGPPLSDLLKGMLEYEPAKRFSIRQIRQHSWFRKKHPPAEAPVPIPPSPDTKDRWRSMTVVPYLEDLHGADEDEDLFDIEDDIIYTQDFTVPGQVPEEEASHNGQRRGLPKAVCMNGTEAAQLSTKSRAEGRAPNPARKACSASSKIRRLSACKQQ

- Variants of: B1
- procedure summary: STK11 functional score (HeLa growth suppression), rescaled enrichment; synonymous median = 1, nonsense median = 0 (normalised score)
- experimental setup: with HeLa; variant type: missense
Threshold check on STK11 functional score: at or above 0.9 gives Satisfied, strictly below gives Not satisfied.

P149C = Satisfied
G233N = Satisfied
N119I = Satisfied
V390T = Satisfied
E375R = Satisfied
I172R = Not satisfied

Task item: Is reported STK11 functional score greater than or equal to 0.9 here: "A347R"
Reply: Satisfied

Task item: Check the entry "T189P" : does STK11 functional score equal or exceed 0.9?
Reply: Satisfied

Task item: Answer whether STK11 functional score of "T13W" is greater than or equal to 0.9.
Reply: Not satisfied

Task item: For this variant, is measured STK11 functional score 0.9 or higher? "R106V"
Reply: Satisfied
